assay.details: Purity and stability test (content of impurities on storage)
Assay type: physicochemical
test.settings: initial sample, before storage
property.measured: Content of impurities in the initial sample (%)
I only need the number, in %, no unit after it.

Examples with their reported Content of impurities in the initial sample follow.
molecule: CC(O)C1NC(=O)C(N)CC(O)C(O)NC(=O)C2C(O)C(C)CN2C(=O)C(C(O)CC(N)=O)NC(=O)C(C(O)C(O)c2ccc(O)c(OS(=O)(=O)O)c2)NC(=O)C2CC(O)CN2C1=O (single isomer, unassigned) [Comparative Example 6]
meas.value: 2.4
//
molecule: CC(O)C1NC(=O)C(N)CC(O)C(O)NC(=O)C2C(O)C(C)CN2C(=O)C(C(O)CC(N)=O)NC(=O)C(C(O)C(O)c2ccc(O)c(OS(=O)(=O)O)c2)NC(=O)C2CC(O)CN2C1=O (single isomer, unassigned) [Comparative Example 5]
meas.value: 2.1
//
molecule: CC(O)C1NC(=O)C(N)CC(O)C(O)NC(=O)C2C(O)C(C)CN2C(=O)C(C(O)CC(N)=O)NC(=O)C(C(O)C(O)c2ccc(O)c(OS(=O)(=O)O)c2)NC(=O)C2CC(O)CN2C1=O (single isomer, unassigned) [Comparative Example 7]
meas.value: 2.4

Now look at this one.
Tell us which Content of impurities in the initial sample value is on record for CC(O)C1NC(=O)C(N)CC(O)C(O)NC(=O)C2C(O)C(C)CN2C(=O)C(C(O)CC(N)=O)NC(=O)C(C(O)C(O)c2ccc(O)c(OS(=O)(=O)O)c2)NC(=O)C2CC(O)CN2C1=O (single isomer, unassigned) [Comparative Example 4]
1.8

----------
assay.details: Purity and stability test (content of impurities on storage)
Assay type: physicochemical
test.settings: sealed containers at 0-8° C. for 7 days
Experimental: In this example, the purity and stability of the samples obtained in Comparative Examples and Examples were compared. The specific method is described as follows: And then the content of impurities in each sample was analyzed.
Recorded 0-8° C., content of impurities in the sample at 7 day by entry
Use % as the unit, but write only the number.

compound: CC(O)C1NC(=O)C(N)CC(O)C(O)NC(=O)C2C(O)C(C)CN2C(=O)C(C(O)CC(N)=O)NC(=O)C(C(O)C(O)c2ccc(O)c(OS(=O)(=O)O)c2)NC(=O)C2CC(O)CN2C1=O (single isomer, unassigned) [Comparative Example 5]
unit.name: %
meas.value: 3.6

Now for a further compound.
Retrieve 0-8° C., content of impurities in the sample at 7 day measured for CC(O)C1NC(=O)C(N)CC(O)C(O)NC(=O)C2C(O)C(C)CN2C(=O)C(C(O)CC(N)=O)NC(=O)C(C(O)C(O)c2ccc(O)c(OS(=O)(=O)O)c2)NC(=O)C2CC(O)CN2C1=O (single isomer, unassigned) [Comparative Example 2] and print it.
3.4

Every entry's value here was drawn from patent US9580470B2.
